Origin of the recorded values: patent US8507502B2

Target: GST-EGFR-KD^L858R/T790M (Homo sapiens, UniProt P00533, L858R/T790M)
Construct: residues from 696 to 1022 and with L858R/T790M
Sequence (P00533 696-1022 T790M/L858R): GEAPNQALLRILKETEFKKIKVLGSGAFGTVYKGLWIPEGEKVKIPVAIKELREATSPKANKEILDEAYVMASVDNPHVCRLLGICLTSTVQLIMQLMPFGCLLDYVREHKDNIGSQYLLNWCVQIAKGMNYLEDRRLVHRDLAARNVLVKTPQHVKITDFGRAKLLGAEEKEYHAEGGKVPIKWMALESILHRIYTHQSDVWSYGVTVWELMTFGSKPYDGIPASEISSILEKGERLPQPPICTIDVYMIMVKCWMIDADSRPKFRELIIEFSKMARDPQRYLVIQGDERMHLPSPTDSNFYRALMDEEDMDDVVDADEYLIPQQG
Assay: Double mutant EGFR kinase assay (Kinase-Glo)
Settings: 1 μM ATP, read-out: IC50 (concentration at which activity of 50% of mutant EGFR is inhibited)
reported-property: IC50

Consider the reported IC50 for these molecules:
{"columns": ["molecular-string", "reading"],
 "data": [
  ["CC#CC(=O)Nc1cccc(-c2c(-c3ccccc3)oc3ncnc(N[C@H](CO)c4ccccc4)c23)c1", "0.5 to 2.5 µM"],
  ["C[C@@H](Nc1ncnc2sc3c(c12)CCN(C(=O)/C=C/CNC1CC1)C3)c1ccccc1", "0.5 to 2.5 µM"],
  ["CN(C)C/C=C/C(=O)N1CCc2c(sc3ncnc(N[C@H](COCc4cccc(F)c4)c4ccccc4)c23)C1", "0.01 to 0.499 µM"],
  ["C=CC(=O)N1CCc2c(sc3ncnc(N[C@H](COC)c4ccccc4)c23)C1", "0.01 to 0.499 µM"],
  ["C=CC(=O)N1CCc2c(sc3ncnc(N[C@H](C)c4ccccc4)c23)C1", "0.5 to 2.5 µM"]
]}

--- query ---
Query :: Which value of IC50 has been reported for COc1cccc(COC[C@@H](Nc2ncnc3sc4c(c23)CCN(C(=O)/C=C/CN(C)C)C4)c2ccccc2)c1 in the records?
Result :: 0.5 to 2.5 µM
